B1: library; numbered along this chain (parent)
chain: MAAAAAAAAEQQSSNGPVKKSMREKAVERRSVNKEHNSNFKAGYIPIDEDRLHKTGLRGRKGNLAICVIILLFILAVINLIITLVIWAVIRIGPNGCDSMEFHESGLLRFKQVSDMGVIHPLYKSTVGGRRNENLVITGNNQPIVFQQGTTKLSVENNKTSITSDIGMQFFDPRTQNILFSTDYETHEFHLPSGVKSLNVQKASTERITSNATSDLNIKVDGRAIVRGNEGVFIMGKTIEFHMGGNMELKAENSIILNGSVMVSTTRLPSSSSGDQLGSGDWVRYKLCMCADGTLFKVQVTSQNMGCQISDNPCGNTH

# Variants of: B1
# protocol: SGCB cell-surface expression functional score (HA stain, bin4 vs bin1, normalised to synonymous) (log10 ratio); higher = more cell-surface SGCB (functional)
Classification by SGCB cell-surface expression functional score (log10) | ranges: Low: < -0.5; Mid: ≥ -0.5 and < 0.06; High: ≥ 0.06

>  <mutation.code>
L287R

>  <qualitative.label>
Low

$$$$
>  <mutation.code>
F146K

>  <qualitative.label>
Low

$$$$
>  <mutation.code>
A224D

>  <qualitative.label>
Low

$$$$
>  <mutation.code>
T301D

>  <qualitative.label>
High

$$$$
>  <mutation.code>
V136H

>  <qualitative.label>
Mid

$$$$
>  <mutation.code>
L122H

>  <qualitative.label>
High

$$$$
>  <mutation.code>
L64T

>  <qualitative.label>
High

$$$$
>  <mutation.code>
V200N

>  <qualitative.label>
Low

$$$$
>  <mutation.code>
Q112C

>  <qualitative.label>
Low

$$$$
>  <mutation.code>
V32M

>  <qualitative.label>
Mid

$$$$
>  <mutation.code>
N37I

>  <qualitative.label>
Mid

$$$$
>  <mutation.code>
K152L

>  <qualitative.label>
Low

$$$$
>  <mutation.code>
H53Q

>  <qualitative.label>
High

$$$$
>  <mutation.code>
M22I

>  <qualitative.label>
Mid

$$$$
>  <mutation.code>
F180L

>  <qualitative.label>
Mid

$$$$
>  <mutation.code>
N79P

>  <qualitative.label>
Mid

$$$$
>  <mutation.code>
K54S

>  <qualitative.label>
High

$$$$
>  <mutation.code>
Q169N

>  <qualitative.label>
Low

$$$$
>  <mutation.code>
N253W

>  <qualitative.label>
High

$$$$
>  <mutation.code>
I309L

>  <qualitative.label>
High

$$$$
